meta.source: ChEMBL document CHEMBL1255487

experiment: Cmax in CD-1 mouse at 25 mg/kg, po; assay type: ADME, organism-based; parameters: dose 25 mg/kg, route oral; details: in vivo
Recorded Metric: Cmax (µM)
Give just the numeric value; µM need not be written.

Cmax lookup needed for COc1ccc(OC)c(CNc2ccc3nc(N)nc(N)c3c2Cl)c1 , thanks.
5.1

---

assay: Binding affinity to wild type Plasmodium falciparum DHFR by competitive binding assay
Known Ki of a selection of compounds
Numbers only here, please. The scale is nM.

These recorded examples may help you get a feel for the data.
CC1(C)N=C(N)N=C(N)N1c1ccc(Cl)cc1 [CYCLOGUANIL] :: 1.51
CC1(C)N=C(N)N=C(N)N1OCCCOc1cc(Cl)c(Cl)cc1Cl :: 0.5
COc1ccc(OC)c(CNc2ccc3nc(N)nc(N)c3c2Cl)c1 :: 0.39

Now for the compound whose Ki we want.
Query: Ki; subject: CCc1nc(N)nc(N)c1-c1ccc(Cl)cc1 [PYRIMETHAMINE]
0.59
